- Procedure summary: BSK_3C_SRB: Viability Assessment in the BioMAP Diversity Plus: 3C Assay (AID 2283023);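 further: cells read 24 h after compound dosing; fitted both ways against DMSO so a hit may be signal rise or drop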
- Experimental parameters: primary human endothelial cells (HUVEC)
The source made the active and inactive calls. How the source made its calls: active means hit-call score of the fitted dose curve at least 0.9, where 1 is the maximum; inactive means score below 0.9.
# valid calls are active, inactive; nothing else

Illustrative cases are given below, each with its answer.
>  <Molecule>
Cc1ccc(S(=O)(=O)C(I)I)cc1

>  <Class label>
active

$$$$
>  <Molecule>
FC(F)(F)C(F)(F)C(F)(F)C(F)(F)C(F)(F)C(F)(F)C(F)(F)CCI

>  <Class label>
inactive

$$$$
>  <Molecule>
Cc1cc(O)c(C(C)(C)C)cc1C(C)(C)C

>  <Class label>
active

$$$$

Problem: Hello, I am checking results. What call was entered for FC(F)(F)C(F)(F)C(F)(F)CC1CO1 (stereo not given) ?
Result: inactive

Problem: Please share the test call associated with O=C(O)C(F)(F)C(F)(F)C(F)(F)OC(F)(F)F .
Result: inactive

Problem: Call for entry O=C1C=CC(=O)N1c1ccc(Cc2ccc(N3C(=O)C=CC3=O)cc2)cc1 :
Result: active

Problem: Which outcome did this test record for the molecule Nc1cc([N+](=O)[O-])cc(Cl)c1O ?
Result: inactive

Problem: Kindly provide the recorded test outcome for the following molecule: CCN(CC)c1ccc(C=O)c(O)c1
Result: inactive

Problem: Dear colleague, could you share the recorded outcome for OCC(O)CC(F)(F)C(F)(F)C(F)(F)C(F)(F)C(F)(F)C(F)(F)C(F)(F)C(F)(F)F (stereo not given) when you have a moment?
Result: inactive

Problem: // outcome(item) with item = C=C(C)C(=O)OCC(F)(F)C(F)(F)C(F)(F)C(F)F
Result: inactive

Problem: Short answer needed: outcome of this test for NCC(F)(F)C(F)(F)C(F)(F)C(F)(F)C(F)(F)C(F)(F)C(F)(F)C(F)(F)F ?
Result: inactive

Problem: For O=C(F)C1(F)C(F)(F)C(F)(F)C(F)(F)C(F)(F)C1(F)F , which call appears in the assay record?
Result: inactive

Problem: What is the recorded call for this molecule in the test? CCN(CC)c1ccc(C=O)cc1
Result: inactive

Problem: # lookup: test call for O=C=Nc1cccc2c(N=C=O)cccc12
Result: inactive

Problem: Which outcome was assigned to O=C=NCc1cccc(CN=C=O)c1 in this test?
Result: inactive

Problem: Which outcome was assigned to CCOC(C=C(C)CCC=C(C)C)OCC in this test?
Result: active

Problem: Recorded call for CC(C)CCCC(C)CCO (stereo not given) ?
Result: active

Problem: Which result was noted for this molecule in the test: O=C(c1ccccc1)c1ccc(O)cc1O
Result: inactive

Problem: Lab log entry: Cc1cnccn1 — outcome as called in the assay?
Result: inactive

Problem: Returns: the outcome recorded for O=C(O)C(F)(F)C(F)(F)C(F)(F)C(F)(F)C(F)(F)C(F)(F)C(F)F in this assay.
Result: inactive

Problem: Please indicate how the test categorized CC(C)(C)c1cc(CCC(=O)NCCCCCCNC(=O)CCc2cc(C(C)(C)C)c(O)c(C(C)(C)C)c2)cc(C(C)(C)C)c1O .
Result: inactive

Problem: Would you mind telling me which call this test gave O=C(O)C(F)(F)C(F)(F)C(F)(F)OC(F)(C(F)(F)F)C(F)(F)F ?
Result: inactive

Problem: Hey, what did the test say about OCCCCC(F)(F)C(F)(F)C(F)(F)C(F)(F)F ?
Result: inactive

Problem: GET /call?item= CCN(CC)c1ccc(N=Nc2ccccc2)cc1 returns the recorded outcome of this test.
Result: active

Problem: Could you please tell me the result logged for NC(=O)C(F)(F)C(F)(F)C(F)(F)C(F)F in this assay?
Result: inactive
